ASSAY_TARGET: CYP3A4 (Homo sapiens, UniProt P08684)
Sequence (P08684 whole entry): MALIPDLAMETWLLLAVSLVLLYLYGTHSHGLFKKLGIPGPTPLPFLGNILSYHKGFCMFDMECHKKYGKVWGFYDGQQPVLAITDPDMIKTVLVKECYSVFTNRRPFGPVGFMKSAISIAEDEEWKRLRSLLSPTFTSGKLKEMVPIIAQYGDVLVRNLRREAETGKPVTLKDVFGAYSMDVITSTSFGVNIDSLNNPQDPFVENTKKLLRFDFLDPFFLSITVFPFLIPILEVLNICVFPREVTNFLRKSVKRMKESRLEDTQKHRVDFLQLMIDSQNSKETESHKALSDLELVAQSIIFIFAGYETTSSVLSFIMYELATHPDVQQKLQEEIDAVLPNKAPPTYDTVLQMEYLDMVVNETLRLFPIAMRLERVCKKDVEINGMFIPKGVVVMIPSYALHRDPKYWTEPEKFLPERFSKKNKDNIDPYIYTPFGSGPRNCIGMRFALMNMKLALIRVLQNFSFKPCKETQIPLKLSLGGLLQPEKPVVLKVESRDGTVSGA
TEST_SUMMARY: CYP inhibition assay, 3A4
Type: in vitro ADME
READOUT: inhibition at 10 µM

## Input Return reported inhibition at 10 µM; argument: O=c1[nH]c(Nc2cc(Cl)cc(Cl)c2)nc2cccc(O)c12 [Compound 11e]
## Output > 65%

* * *

TEST_SUMMARY: in vivo
EXPERIMENTAL_SETUP: rat, po, 10 mg/kg
READOUT: Cmax (ng/mL)
Return type: number; implicit unit ng/mL.

## Input // lookup Cmax for O=c1[nH]c(Nc2cc(Cl)cc(Cl)c2)nc2cccc(O)c12 [Compound 11e]
## Output 60

// provenance: paper PMC7920804
